Test system: NCI/ADR-RES ovarian
Experiment: NCI-60 one-dose screen, 48 h
Settings: 10 µM unless noted
The panel holds about 83,000 compounds, 20% with a hit somewhere; the sample as a whole holds those more often. Activity calls are given as the source filed them. Rule for the calls: active = growth percent below 10; inactive = the rest.
Use one of these outcomes when replying: active, inactive

Reference set (2 entries):
| query.smiles | group |
| --- | --- |
| COc1ccc(Cn2cc(C(=O)Nc3cccnc3Nc3ccccc3)nn2)cc1 | inactive |
| CCc1c2c(nc3ccc(OCc4ccc(B5OC(C)(C)C(C)(C)O5)cc4)cc13)-c1cc3c(c(=O)n1C2)COC(=O)[C@]3(O)CC | active |

Task item: For Cn1c(=O)c2c(nc(Nc3cc(=O)[nH]c(=O)[nH]3)n2Cc2ccccc2)n(C)c1=O , what call appears in the results of this test?
Reply: inactive

Task item: For C#Cc1cc(C(=O)Nc2ccc(CN3CCN(C)CC3)c(C(F)(F)F)c2)ccc1C , what call appears in the results of this test?
Reply: inactive

Task item: For O=C1c2cc3c(cc2-c2c1c1ccc(Cl)cc1c(=O)n2CCCn1ccnc1)OCO3 , what call appears in the results of this test?
Reply: active

====

This listing pairs compounds with measured growth.
Test system: 786-0 renal
Assay: NCI-60 one-dose screen, 48 h (100 = growth as untreated, 0 = no growth, -100 = all killed)
Details: 10 µM unless noted
About 83,000 compounds went through this panel and 20% of them were active in at least one assay; those are over-represented in the sample as a whole. Calls of active or inactive are those of the source. The calls were made as follows: active = growth percent below 10; inactive = the rest.

| compound | measured.parameter | result |
| --- | --- | --- |
| Clc1ccc(Nc2nc(Nc3ccc(Cl)cc3)nc(Nc3ccc(-c4cc(-c5cccc(Cl)c5)on4)cc3)n2)cc1 | growth | 94.6% (inactive) |
| COc1cc(N=Nc2ccc(O)c3ncccc23)c2ncccc2c1 | growth | 24.3% (inactive) |
| Cc1ccc(/C=C(\C#N)c2cc3ccccc3[nH]2)cc1 | growth | 72.7% (inactive) |
| CN1CCN(Cc2ccc(NC(=O)c3cccc(C#Cc4c(N)ncc5ccc(F)cc45)c3)cc2C(F)(F)F)CC1 | growth | -83.2% (active) |
| CN(C)C(=O)c1cc2cnc(Nc3ccc(-c4csc5c(=S)cc(N6CCOCC6)oc45)cc3)nc2n1C1CCCC1 | growth | 9.52% (active) |
| CCOC(=O)c1nc2c3ccccc3cnn2c1C(=O)c1ccc(OC)cc1 | growth | 102% (inactive) |
| Cc1nc2sc(C(=O)Nc3cccc(Cl)c3C)c(N)c2cc1C(O)c1ccccc1 (stereo not drawn) | growth | 16.5% (inactive) |
| Cc1ccc(C(=O)N(CCCN)[C@@H](c2nc3cc(Cl)ccc3c(=O)n2Cc2ccccc2)C(C)C)cc1 | growth | -13.7% (active) |
| Cc1ccc(C(=O)c2ccc(CC(=O)N=Nc3c(O)[nH]c4ccc(OC(F)(F)F)cc34)n2C)cc1 | growth | 101% (inactive) |
| COC(=O)/C=C1/SC(=Nc2ccc([N+](=O)[O-])cc2)N(CCc2c[nH]c3ccccc23)C1=O | growth | 68% (inactive) |

Task item: // fetch 786-0 renal growth for O=C(Oc1ccc(CO[N+](=O)[O-])cc1)c1ccccc1
Reply: -87.7% (active)

Task item: // fetch 786-0 renal growth for Cc1oc2c(Cc3ccc(NC(=O)c4ccc(Cl)cc4)cc3)ncnc2c1C(=O)NO
Reply: 95% (inactive)

Task item: // fetch 786-0 renal growth for Nc1ncnc2c1C(c1ccc([N+](=O)[O-])cc1)c1sc3c(F)cccc3c1O2 (stereo not drawn)
Reply: 103% (inactive)

Task item: // fetch 786-0 renal growth for O=c1ccc2nc(-c3ccccn3)nn(-c3ccccc3)c-2c1
Reply: 53.6% (inactive)

Task item: // fetch 786-0 renal growth for N#CC(Cc1cccc2ccccc12)c1cc2ccccc2[nH]1 (stereo not drawn)
Reply: 95.3% (inactive)

Task item: // fetch 786-0 renal growth for O=C1C(N2CCOCC2)=C(I)C(=O)c2ncccc21
Reply: 90% (inactive)

Task item: // fetch 786-0 renal growth for CCCc1cc(C(N)=S)ccn1
Reply: 95.6% (inactive)

Task item: // fetch 786-0 renal growth for O=C(N/N=C/c1ccc(O)cc1O)c1cccc(Nc2ccnc(C(F)(F)F)c2)c1
Reply: 5.8% (active)

====

Tested on: NCI/ADR-RES ovarian
Experiment: NCI-60 one-dose screen, 48 h
Conditions: 10 µM unless noted
The panel holds about 83,000 compounds, 20% with a hit somewhere; the sample as a whole holds those more often. Calls of active or inactive are those of the source. The calls were made as follows: active = growth percent below 10; inactive = the rest.
Use one of these outcomes when replying: active, inactive

Reference set (8 entries):
| query.smiles | group |
| --- | --- |
| Cc1ccc(Cl)cc1N1CCN(C(=O)[C@@H]2C[C@@H]2c2ccc(F)cc2)CC1 | inactive |
| CCN(CC)CC(=O)Nc1ccc2ncnc(Nc3ccc(Oc4cccc(F)c4)c(Cl)c3)c2c1 | inactive |
| Nc1n[nH]c2cccc(C#Cc3cccc(C(=O)Nc4ccc(CN5CCOCC5)c(C(F)(F)F)c4)c3)c12 | inactive |
| COc1cc(-c2nc3occn3c2-c2ccnc(NCCCNS(=O)(=O)c3ccc(O)cc3)n2)ccc1F | inactive |
| Cc1ccc(/C=C/c2c(C(=O)/C=C/c3ccccc3)c(C)nc3ccccc23)cc1 | active |
| COc1ccc(Oc2nc(Nc3ccc(N4CCOCC4)cc3)ncc2NC(=O)c2cc(OC)cc(OC)c2)cc1 | inactive |
| Cc1ccc(-c2nc3nc(-c4ccccc4)nc(N4CCN(S(=O)(=O)c5ccccc5)CC4)c3o2)cc1 | inactive |
| CCOC(=O)c1cnn(-c2ccc(S(N)(=O)=O)cc2)c1N | inactive |

Task item: For CCCCCCCCn1ccc2cc(NC(=O)CN3CCN(c4nc(C)cc(N5CCCCC5)n4)CC3)ccc21 , what call appears in the results of this test?
Reply: inactive

Task item: For COCCOc1cc2ncnc(N3CCN(S(=O)(=O)c4ccccc4Cl)CC3)c2cc1OCCOC , what call appears in the results of this test?
Reply: inactive

Task item: For Cn1cc(-c2nc3c(F)cc4[nH]ncc4c3c3c2CCCC3)c(C(F)F)n1 , what call appears in the results of this test?
Reply: inactive

Task item: For O=C(NCCCN1CCCCC1)c1ccc(-c2nc3ccc4[nH]ncc4c3c3c2CCCC3)cc1 , what call appears in the results of this test?
Reply: inactive

====

System: DU-145 prostate
Experiment: NCI-60 one-dose screen, 48 h (100 = growth as untreated, 0 = no growth, -100 = all killed)
Conditions: 10 µM unless noted
Protocol: Cells are grown in 96 well plates and exposed to the test compound for 48 hours. Compounds are tested at a single concentration, which is 10^-5 M for most compounds. The reported endpoint is percent growth (GI% or GIPRCNT), where numbers from 0 - 100% represent growth inhibition, and numbers from -100% - 0 represent cell death. For example, a value of 40 represents 60% growth inhibition. A value of 0 means no net growth occurred over the course of the experiment. […]
This is part of a sample that, as a whole, favours compounds with a hit. Of some 83,000 tested, about 20% had one in any assay.
This listing pairs compounds with measured growth.
Response body: numeric value in %, unit text excluded.

| compound | system | growth / % |
| --- | --- | --- |
| O=[N+]([O-])c1cc(C(F)(F)F)ccc1Sc1ccc(C(F)(F)F)cc1[N+](=O)[O-] | DU-145 prostate | 64.4 |
| C=C1C(=O)O[C@H]2[C@H]1CC/C(CNS(=O)(=O)c1ccc3ccccc3c1)=C\CC[C@@]1(C)O[C@@H]21 | DU-145 prostate | -85 |
| Nc1nc(Nc2ccc(F)cc2)nn1C(=O)c1cc(Cl)ccc1Cl | DU-145 prostate | 78.8 |
| CCCCCCCC/C=C\CCCCCCCCOc1ccccc1CC(=O)NCC[N+]1(C)CCOCC1 | DU-145 prostate | 85.3 |
| N#Cc1cc(-c2ccnc(Nc3ccc(NC(=O)CCl)cc3)n2)ccc1N1CCCC1 | DU-145 prostate | 17.1 |

Task item: Reported growth for COc1ccc(-c2ccc(-c3ccc(C(=N)N)cn3)o2)cc1Cl : what is it?
Reply: 46.5

Task item: Reported growth for CNC(=O)c1cc(Oc2ccc3nc(NC(=O)Nc4ccc(C(F)(F)F)cc4)sc3c2)ccn1 : what is it?
Reply: 48.9

Task item: Reported growth for COc1ccc2nc3cc(Cl)ccc3c(NCCCNCCC(C)O)c2c1 (configuration not stated) : what is it?
Reply: -16.2

Task item: Reported growth for COc1cc(N=Nc2ccc(O)c3ncccc23)c2ncccc2c1 : what is it?
Reply: 31

Task item: Reported growth for CN1C(=O)/C(=C/c2ccc(C(=O)Nc3ncc(Cc4ccccc4Cl)s3)cc2)SC1=S : what is it?
Reply: 73

Task item: Reported growth for CCCCCCNC(=O)Oc1ccc(/C(=C(/CC)Cc2ccccc2)c2ccc(OCCCN(C)C)cc2)cc1 : what is it?
Reply: 89.4

Task item: Reported growth for CC(=O)N1N=C(c2ccc(Nc3nc(Nc4ccc(F)cc4)nc(Nc4ccc(Cl)cc4)n3)cc2)CC1c1ccc(N(C)C)cc1 (configuration not stated) : what is it?
Reply: 5.71

Task item: Reported growth for O=C1c2cccc3cccc(c23)C(=O)N1N1C(=O)c2cccc3c(N4CCNCC4)ccc(c23)C1=O : what is it?
Reply: 107

Task item: Reported growth for O=C1/C(=C/c2cn(-c3ccccc3)nc2-c2ccccc2)SC(=S)N1c1ccc(Cl)cc1 : what is it?
Reply: 74.6

Task item: Reported growth for N#C/C(=C\c1ccc(Br)cc1)n1nnc2c(F)cccc21 : what is it?
Reply: 5.36

Task item: Reported growth for COc1cc(OC)cc(-c2ccc(-c3ccc(C(=N)N)cn3)s2)c1 : what is it?
Reply: 66.3

Task item: Reported growth for NCCOCCOc1ccccc1 : what is it?
Reply: 101

Task item: Reported growth for [2H]C([2H])([2H])Oc1cccc(/C=C/C(=O)/C=C(/C=C/c2cccc(OC([2H])([2H])[2H])c2OC([2H])([2H])[2H])OB(F)F)c1OC([2H])([2H])[2H] : what is it?
Reply: 88.3
